- Tested on: HEK-293T
- experiment.description: Multiplex assay against HEK293T
- Type: toxicity, cell-based
- test.parameters: human, 24 h, 10 µM, compound concentration 10 uM, replicate 2
assay.endpoint: Population Apoptotic (%)

Bench note: what Population Apoptotic (%) did O=c1cc(N2CCOCC2)oc2c(-c3cccc4c3sc3ccccc34)cccc12 show? 60%

Using the record for Cl.O=C(O)c1cc(-c2ccc(C3CCNCC3)cc2)c2ccc(-c3ccc(C(F)(F)F)cc3)cc2c1 , report its Population Apoptotic (%). 60%

Population Apoptotic (%) lookup needed for CC(C)Oc1ccccc1C(=O)Nc1ccccc1C(=O)Nc1cccc(S(=O)(=O)C(F)(F)F)c1 , thanks. 78%

Sample Cc1cccc(CN2CCN(C(c3ccccc3)c3ccc(Cl)cc3)CC2)c1.Cl.Cl (centres undefined) — what was its Population Apoptotic (%)? 59%

What value of Population Apoptotic (%) has been recorded for this entry: COc1cc2ncn(-c3cc(OCc4ccccc4C(F)(F)F)c(C(N)=O)s3)c2cc1OC [GW843682X] 57%

Any idea what its Population Apoptotic (%) is? The compound is O=c1[nH]c2ccccc2n1C1CCN(Cc2ccc(-c3[nH]c4cc5ncnc5cc4nc3-c3ccccc3)cc2)CC1 28%

Could you tell me which Population Apoptotic (%) is on file for CCc1nn(CCCN2CCN(c3cccc(Cl)c3)CC2)c(=O)n1CCOc1ccccc1.Cl [NEFAZODONE HYDROCHLORIDE] ? 97%

Which Population Apoptotic (%) reading was recorded for the compound CNC(=O)Nc1ccc(-c2nc(N3CC4CCC(C3)O4)c3cnn(C4CCC5(CC4)OCCO5)c3n2)cc1 ? 68%

State the recorded Population Apoptotic (%) for this entry: C[C@]12CC[C@@H]3c4ccc(O)cc4CC[C@H]3[C@@H]1CC[C@@H]2O 7%

---

Field: Total Cell Count. Provide a value for each of the compounds that follow.
- System: Fibroblast
- experiment.description: Multiplex assay against human fibroblast
- Format: toxicity, cell-based
- test.parameters: 24 h, 1 µM, compound concentration 1 uM, replicate 2
Respond with the number and no other words.

Given CCCSc1nc(N[C@@H]2C[C@H]2c2ccc(F)c(F)c2)c2nnn([C@@H]3C[C@H](OCCO)[C@@H](O)[C@H]3O)c2n1 [TICAGRELOR] , state its recorded Total Cell Count. 81

Quick check: Total Cell Count of CN1CCN(Cc2ccc(Nc3ncc(Cl)c(Nc4ccccc4S(=O)(=O)N(C)C)n3)cc2)CC1 [DUBERMATINIB] ? 70

What measured Total Cell Count goes with O=c1cc(N2CCOCC2)oc2c(-c3cccc4c3sc3ccccc34)cccc12 ? 86

May I ask what Total Cell Count has been recorded for CC(C)Oc1ccccc1C(=O)Nc1ccccc1C(=O)Nc1cccc(S(=O)(=O)C(F)(F)F)c1 ? 57

---

- Test system: HEK-293T
- experiment.description: Multiplex assay against HEK293T
- Assay type: toxicity, cell-based
- test.parameters: human, 12 h, 10 µM, compound concentration 10 uM, replicate 1
Binning scheme for Population Mitochondria Different-Phenotype (%): low = under 70%, mid = from 70% up to 90%, high = 90% and over

Sort Cc1ccc2c(c1)c1c(n2CCc2ccc(C)nc2)CCN(C)C1 [LATREPIRDINE] into one of the categories. high

Any idea which band COC(=O)C1=C(C)NC(C)=C(C(=O)OCCCN2CCC(c3ccccc3)(c3ccccc3)CC2)[C@H]1c1cccc([N+](=O)[O-])c1 is in? low

Pick a category. Item: COc1cc2ncn(-c3cc(OCc4ccccc4C(F)(F)F)c(C(N)=O)s3)c2cc1OC [GW843682X] high

Which band does CC(C)(C)NC[C@H](O)COc1nsnc1N1CCOCC1 fall in? mid

Hello team, could you let me know which band the following compound falls into: CCc1nn(CCCN2CCN(c3cccc(Cl)c3)CC2)c(=O)n1CCOc1ccccc1.Cl [NEFAZODONE HYDROCHLORIDE] mid

Textbook exercise: identify the category of the compound given here, CC(C)OC(=O)N1CCC(Oc2ncnc3c2cnn3-c2ccc(S(C)(=O)=O)cc2F)CC1 , according to its measured value. high

Bin this entry: O=C(c1cc2c(cc1F)OC(c1ccc(F)cc1)(c1ccc(Cl)cc1Cl)O2)N1CCOCC1 (centres undefined) high

// return the class label for C=CC(=O)Nc1cccc(Oc2nc(Nc3ccc(N4CCN(C)CC4)cc3OC)ncc2Cl)c1 low

Class for COc1ccc(-c2ccc3ncc4c(c3c2)n(-c2ccc(N3CCNCC3)c(C(F)(F)F)c2)c(=O)n4C)cn1.O=C(O)/C=C\C(=O)O ? low

Into which bin does this compound go? Cc1cccc(CN2CCN(C(c3ccccc3)c3ccc(Cl)cc3)CC2)c1.Cl.Cl (centres undefined) high

Kindly identify the class of C[C@]12CC[C@@H]3c4ccc(O)cc4CC[C@H]3[C@@H]1CC[C@@H]2O . mid

Hello team, could you let me know which band the following compound falls into: CCCSc1nc(N[C@@H]2C[C@H]2c2ccc(F)c(F)c2)c2nnn([C@@H]3C[C@H](OCCO)[C@@H](O)[C@H]3O)c2n1 mid

Which class holds Cc1c[nH]c2nccc(Oc3c(F)cc(Nc4cc(Cl)nc(N)n4)cc3F)c12 ? low

Hey, which category is O=c1cc(N2CCOCC2)oc2c(-c3cccc4c3sc3ccccc34)cccc12 in, do you know? high

Into which category would you place O=c1[nH]c2ccccc2n1C1CCN(Cc2ccc(-c3[nH]c4cc5ncnc5cc4nc3-c3ccccc3)cc2)CC1 ? low

Which Population Mitochondria Different-Phenotype (%) category applies to Cc1nc(N2CC[C@H](O)C2)ncc1-c1cc(C(F)(F)F)cc2[nH]ncc12 here? low

Field: class (Population Mitochondria Different-Phenotype (%)) — entry: COc1cc(Nc2nccc(-c3cnn4nc(OC)ccc34)n2)cc(C(F)(F)F)c1 mid

Which band does CCc1ccc(OCc2ccccc2C(=O)Nc2ccc3nc(C)cc(N)c3c2)cc1.Cl fall in? low

Please classify: CN1CCN(Cc2ccc(Nc3ncc(Cl)c(Nc4ccccc4S(=O)(=O)N(C)C)n3)cc2)CC1 high

Assign a category based on measured Population Mitochondria Different-Phenotype (%) for CNC(=O)Nc1ccc2c(c1)[C@@]1(CC2)OC(=O)N(CC(=O)N(Cc2ccc(F)cc2)[C@@H](C)C(F)(F)F)C1=O and give only the class name. low

Quick check: band for Cl.O=C(O)c1cc(-c2ccc(C3CCNCC3)cc2)c2ccc(-c3ccc(C(F)(F)F)cc3)cc2c1 mid
